Recorded values, source patent US4220795A.

Test system: rat uterus
Assay: Effects on the Rat Uterus (Test F)
Conditions: rat uterus segments, 0.001 to 10.0 mcg/ml, 29° C.; read-out: Activity value, Test F: Effects on Rat Uterus (ED50, response of 50% that of carbachol)
Exercise: state measured EC50 for each of the compounds provided.

>  <compound>
CCCCC1([C@H](O)/C=C/[C@H]2[C@H](O)CC(=O)[C@@H]2CCCCCCC(=O)OC)CCC1

>  <EC50>
> 10 µg/mL

$$$$
>  <compound>
COC(=O)CCCCCC[C@H]1C(=O)C[C@@H](O)[C@@H]1/C=C/[C@@H](O)C1CC(CC2CCC2)C1 (stereo partly shown)

>  <EC50>
> 10 µg/mL

$$$$
>  <compound>
CCC1CC([C@@H](O)/C=C/[C@H]2[C@H](O)CC(=O)[C@@H]2CCCCCCCO)C1 (stereo partly shown)

>  <EC50>
> 10 µg/mL

$$$$

Would you mind giving EC50 for every compound in the list below?
1. CCC1CC([C@@H](O)/C=C/[C@H]2[C@H](O)CC(=O)[C@@H]2CCCCCCC(=O)OC)C1 (stereo partly shown)
2. CC1([C@H](O)/C=C/[C@H]2[C@H](O)CC(=O)[C@@H]2CCCCCCCO)CCC1
3. CCC1CC(C)([C@H](O)/C=C/[C@H]2[C@H](O)CC(=O)[C@@H]2CCCCCCC(=O)OC)C1 (stereo partly shown)
4. CCC1CC([C@H](O)/C=C/[C@H]2[C@H](O)CC(=O)[C@@H]2CCCCCCO)C1 (relative stereo)

Output line:
1: 0.101 to 1 µg/mL; 2: > 10 µg/mL; 3: > 10 µg/mL; 4: > 10 µg/mL

Would you mind giving EC50 for every compound in the list below?
1. CCC1CC([C@H](O)/C=C/[C@H]2[C@H](O)CC(=O)[C@@H]2CCCCCCC(=O)OC)C1 (stereo partly shown)
2. O=C1C[C@@H](O)[C@H](/C=C/[C@@H](O)C2CC(C3CCC3)C2)[C@H]1CCCCCCCO (stereo partly shown)
3. CCC1CC([C@@H](O)/C=C/[C@H]2C=CC(=O)[C@@H]2CCCCCCCOC(C)=O)C1 (stereo partly shown)
4. CCCCC1([C@H](O)/C=C/[C@H]2[C@H](O)CC(=O)[C@@H]2CCCCCCCO)CCC1
5. CCC1CC([C@H](O)/C=C/[C@H]2[C@H](O)CC(=O)[C@@H]2CCCCCCCO)C1 (stereo partly shown)
6. CCC1CC(C)([C@@H](O)/C=C/[C@H]2[C@H](O)CC(=O)[C@@H]2CCCCCCCO)C1 (stereo partly shown)
7. CCCCC1([C@@H](O)/C=C/[C@H]2[C@H](O)CC(=O)[C@@H]2CCCCCCC(=O)OC)CCC1

Output line:
1: > 10 µg/mL; 2: > 10 µg/mL; 3: > 10 µg/mL; 4: > 10 µg/mL; 5: 0.101 to 1 µg/mL; 6: > 10 µg/mL; 7: 0.01 to 0.1 µg/mL
